# test-system: T1, cynomolgus monkey CD40 on cells (cynomolgus monkey, UniProt P25942 21-277 (human entry))
# T1 construct: also called cyno CD40 on HEK293 cells; CD40 on cynomolgus monkey B cells
# T1 chain: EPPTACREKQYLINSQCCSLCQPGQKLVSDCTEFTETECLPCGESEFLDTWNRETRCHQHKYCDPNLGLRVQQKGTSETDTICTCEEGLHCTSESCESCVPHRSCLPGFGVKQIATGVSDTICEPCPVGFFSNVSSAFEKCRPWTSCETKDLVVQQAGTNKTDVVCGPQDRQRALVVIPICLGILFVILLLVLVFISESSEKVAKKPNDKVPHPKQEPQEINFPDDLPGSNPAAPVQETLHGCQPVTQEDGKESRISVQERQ
# test-summary: flow cytometry, HEK293 transfectants vs control cells
Give measured fold over control (gMFI) for each item. Keep answers brief.
The reply should be a number in fold, with the unit left off.

Return reported fold over control (gMFI); argument: 36F3 (antibody, IgG4, V domains shown, also called 4891-1) VH: QVQLQQSGPGLVKPSQTLSLTCAISGDSVSSSRTAWNWIRQSPSRGLEWLGRTYYRSKWYHDYSVSVKSRITIDPDTSKNQFSLQLNSVTPEDTAVYYCARGAAPFDYWGQGTLVTVSS VL: EIVLTQSPGTLSLSPGERATLSCRASQSVSSNYLAWYQQKPGQAPRALIYAASNRAAGISDRFSGSGSGTDFTLTISRLEPEDFAVYFCQQYGSSPLTFGGGTKVEIKR
82

Return reported fold over control (gMFI); argument: 33H9 (antibody, IgG4, V domains shown, also called 4897-1) VH: QVQLVESGGGVVQPGRSLRLSCAASGFTFSSHGMHWVRQPPGKGLEWVAVIWYDGSNEYYGDSVKGRFTISRDNSKNTLYLQMNSLRVEDTAVYYCTRGGGHWNYEGHYYGMDVWGQGTTVTVSS VL: QAVPTQPSSLSASPGASASLTCTLRSGINVGSSRIYWYQQKPGSPPQFLLRYTSDSDKLQGSGVPSRFSGSKDASANAGLLLISGLQSEDEADYYCMIWHSSAVVFGGGTKLTVLG
73

Return reported fold over control (gMFI); argument: 30A12 (antibody, IgG4, V domains shown, also called 4878-1) VH: EVQLLESGGGLVQPGGSLRLSCAASGFTFSRNAMSWVRQAPGKGLEWVSATGGSGISTYYADSVKGRFTISRDNSKNTLYLQMNSLRAEDTAVYYCARGYSNSWWYFDYWGQGTLVTVSS VL: QSALTQPASVSGSPGQSITISCTGTSSDVGNYNLVSWYQQHPGKAPKLMIFEVNQRPSGVSNRFSGSKSGTTASLTISGLQAADEADYFCCSYTTSSTYVIFGGGTKLTVLG
71

Return reported fold over control (gMFI); argument: 33H6 (antibody, IgG4, V domains shown, also called 4883-1) VH: QVQLVQSGAEVKKPGASVKVSCKASGYTFPGYYMYWLRQAPGQGLEWMGWINPDSGDTNYAQKFQGRVTMTRDTSISTAFMELSRLRSDDTAVYYCAREKPRYFDSFYYYLMDVWGQGTTVTVSS VL: DIQMTQSPSSLSASVGDRVTITCRAGQNISRHLNWYQQNPGKAPKVLIHPASSLPSGVPSRFSGSGSGTDFSLTISSLQPEDFGTYFCQQSYSTPPTFGGGTKVELKR
74
